Reference source for all entries: patent US7300925B2

- Test system: intestinal calcium transport
- procedure_details: support of intestinal calcium transport in vitamin D-deficient rats on a low-calcium diet
- Format: in vivo
- measurement_conditions: 130 pmol daily i.p. for seven days; vitamin D-deficient rats, low-calcium diet; 24 hours after the last dose
measured_metric: Ca transport S/M (mean ± SEM)
Give your answer as a number; write no unit.

Below, each entry is followed by its recorded Ca transport S/M (mean ± SEM) result.
[
  {
    "molecule": "CC=C1[C@H](O)CC(=C/C=C2\\CCC[C@@]3(C)C2CCC3[C@@H](C)CCCC(C)(C)O)C[C@H]1O (stereo partly shown) [Compound 5b]",
    "tested_target": "intestinal calcium transport",
    "measured_metric": "Ca transport S/M (mean ± SEM)",
    "result_number": 3.8
  },
  {
    "molecule": "CC=C1C(O)CC(=CC=C2CCCC3(C)C2CCC3C(C)CCCC(C)(C)O)CC1O (stereo not shown) [Compound 4a]",
    "tested_target": "intestinal calcium transport",
    "measured_metric": "Ca transport S/M (mean ± SEM)",
    "result_number": 6.8
  },
  {
    "molecule": "CC=C1C(O)CC(=CC=C2CCCC3(C)C2CCC3C(C)CCCC(C)(C)O)CC1O (stereo not shown) [Compound 5a]",
    "tested_target": "intestinal calcium transport",
    "measured_metric": "Ca transport S/M (mean ± SEM)",
    "result_number": 5.7
  }
]

--- query ---
Q. What value of Ca transport S/M (mean ± SEM) has been reported for the following molecule? CC=C1[C@H](O)CC(=C/C=C2\CCC[C@@]3(C)C2CCC3[C@@H](C)CCCC(C)(C)O)C[C@H]1O (stereo partly shown) [Compound 4b]
A. 5.8
